The measured values listed here are drawn from patent US20250352659A1.

# experiment.summary: Conjugator-antibody conjugate stability in pH 7.4 and 8.0 buffer with and without GSH;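 further: conjugate hydrolysis tracked by LC-MS analysis of reduced samples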
# Assay type: physicochemical
# conditions: incubation 20 h, pH 7.4, 22 °C
quantity.name: MS DAR

Q: Requested field: MS DAR. Item: CN(C)C(=O)CN(C)C(=O)OCC(CN)N1C(=O)C=CC1=O (stereo not drawn) [3-8]
A: 7.92

Hi team, please reply with MS DAR for each item in this list.
1. CN(C)C(=O)CCNC(=O)OCC(CCN)N1C(=O)C=CC1=O (stereo not drawn) [3-11]
2. CC(C)N(CCC(=O)N(C)C)C(=O)OCC(CN)N1C(=O)C=CC1=O (stereo not drawn) [3-9]

A:
8.00
8.00

Hi team, please reply with MS DAR for each item in this list.
1. CN(C)C(=O)CCOCC(N)CN1C(=O)C=CC1=O (stereo not drawn) [3-7]
2. CN(C)C(=O)CCCCC(CN)N1C(=O)C=CC1=O (stereo not drawn) [3-10]
3. NCC(COC(=O)NCCOCCOCCOCCOCCC(=O)O)N1C(=O)C=CC1=O (stereo not drawn) [3-4]

A:
1: 8.00; 2: 8.00; 3: 8.00

###

# experiment.summary: Conjugator-antibody conjugate stability in formulation buffer (pH 5.5 20 mM histidine buffer)
# Assay type: physicochemical
# conditions: pH 5.5, 22 °C
quantity.name: MS DAR-T = 0 h
Numbers only.

Take a look at these entries with their results.
Q: Requested field: MS DAR-T = 0 h. Item: CN(C)C(=O)CN(C)C(=O)OCC(CN)N1C(=O)C=CC1=O (stereo not drawn)
A: 7.76

Q: Requested field: MS DAR-T = 0 h. Item: CC(C)N(CCC(=O)N(C)C)C(=O)OCC(CN)N1C(=O)C=CC1=O (stereo not drawn)
A: 8.00

Q: Requested field: MS DAR-T = 0 h. Item: CN(C)C(=O)CCNC(=O)NCC(CN)N1C(=O)C=CC1=O (stereo not drawn)
A: 8.02

Q: Requested field: MS DAR-T = 0 h. Item: CN(C)C(=O)CCOCCC(CN)N1C(=O)C=CC1=O (stereo not drawn)
A: 8.00

Q: Requested field: MS DAR-T = 0 h. Item: CN(C)C(=O)CCNC(=O)OCCC(CN)N1C(=O)C=CC1=O (stereo not drawn)
A: 7.84

Q: Requested field: MS DAR-T = 0 h. Item: CN(C)C(=O)CCOCC(N)CN1C(=O)C=CC1=O (stereo not drawn)
A: 8.00

Q: Requested field: MS DAR-T = 0 h. Item: CN(C)C(=O)CCCCC(CN)N1C(=O)C=CC1=O (stereo not drawn)
A: 8.00

Q: Requested field: MS DAR-T = 0 h. Item: NCC(COC(=O)NCCOCCOCCOCCOCCC(=O)O)N1C(=O)C=CC1=O (stereo not drawn)
A: 8.00

Others:
Q: Requested field: MS DAR-T = 0 h. Item: CN(C)C(=O)CCNC(=O)OCC(CCN)N1C(=O)C=CC1=O (stereo not drawn)
A: 8.02
